B1: TOR1AIP2 (parent)
chain: YKYCDHENAAFKDVALVLTVLLEE

Variants of: B1
Experiment: protein stability index of a GFP-peptide fusion (GPS, HEK-293T) (PSI 1-6); higher = more stable;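 also: lentivirally expressed fusions sorted by FACS into six bins by GFP to DsRed ratio, PSI derived from sequencing read proportions per bin multiplied by bin number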
Details: c terminus: a fixed tail appended
Readout Kind: protein stability index
One number for each entry.

Study these solved cases before continuing.
   variant_label             readout_kind  measured_result
0           D13F  protein stability index             2.83
1           V14C  protein stability index             1.65
2           V14K  protein stability index             2.12
3           T19M  protein stability index             2.87
4           D13S  protein stability index             2.91

Go through the list and state protein stability index for each entry.
1. Y1D
2. A15P
3. E24Y
4. F11K
5. D5L
6. H6C

A.
1. 1.03
2. 2.05
3. 2.58
4. 1.2
5. 2.43
6. 2.09
